test system: OVCAR-3 ovarian; test: NCI tumour cell line growth inhibition, 48 h
Examples of compounds with documented TGI follow.

For COCn1cnc2c(=O)nc(SC)n(-c3ccccc3)c21 on OVCAR-3 ovarian, measured TGI was > 100 µM

Lab note: compound NCCN.O=C([O-])[O-].O=C([O-])[O-].[Co+3].[K+] tested on OVCAR-3 ovarian; recorded TGI was > 100 µM

Given the compound CCOC(=O)c1c(OCC)[nH]c(=O)c(C(c2cccs2)c2c(O)c(C(=O)OCC)c(OCC)[nH]c2=O)c1O and test system OVCAR-3 ovarian, the measured TGI is 30.4 µM

// returns TGI for COc1ccc(C2COc3c(ccc(O)c3C)C2)cc1OC (stereo not given) with OVCAR-3 ovarian; value = > 195 µM

Simply: C(=Nc1ccc2c(c1)Cc1ccccc1-2)c1ccccn1 , OVCAR-3 ovarian, TGI = > 100 µM

Further cases:
Result for NC(CCc1ncc(C(=O)O)s1)C(=O)O (stereo not given) , tested on OVCAR-3 ovarian, TGI: > 100 µM

Log: OVCAR-3 ovarian, compound CC(NC(=O)c1c(O)[nH]c(=S)[nH]c1=O)c1ccc([N+](=O)[O-])cc1 (stereo not given) , TGI = > 100 µM

With OVCAR-3 ovarian as the test system, COc1cc(/C=N\O[Si](C)(C)C(C)(C)C)ccc1O[Si](C)(C)C(C)(C)C showed TGI of 54.1 µM

For Nc1nc(SCc2ccccc2Cl)c2[nH]cnc2n1 on OVCAR-3 ovarian, measured TGI was > 100 µM

====

tested on: A498 renal; assay: NCI tumour cell line growth inhibition, 48 h
Quick reference for TGI among some molecules

Noted for CN1CCN(/C(N)=C(\C#N)C(=O)Nc2ccc(Cl)cc2)CC1 : its TGI reads > 100 µM

Record CC1CCC(C(C)(C)c2ccccc2)C(=O)C1 (stereo not drawn) . Reported TGI: > 100 µM

// CSc1ccc2c(cc1=O)[C@@H](NC(=O)c1cc(O)c(O)c(O)c1)CCc1cc(O)c(O)c(O)c1-2 : TGI value = > 100 µM

Value of measured TGI for the entry Nc1nc(SCc2ccccc2Cl)c2[nH]cnc2n1 : 73.1 µM

TGI measured on Oc1ccc(/C=C/c2cc(O)cc3c2C(c2cc(O)cc(O)c2)C(c2ccc(O)c(O)c2)O3)cc1 (stereo not drawn) = > 100 µM

// recorded TGI for CC(=O)O[C@@]12CO[C@@H]1CC(O)[C@@]1(C)C(=O)[C@H](O)C3=C(C)C(O)C[C@@](O)(C(OC(=O)c4ccccc4)C12)C3(C)C (stereo partly drawn) : > 100 µM

Notebook: CC(C)(C)c1cc(C(=O)/C=C/c2ccc(C(=O)O)cc2)cc(C(C)(C)C)c1 , TGI read as 3.52 µM

Proceed to the following item.
Recorded TGI (molecule Cc1sc2c(c1C)C(c1ccc(Cl)cc1)=N[C@@H](CC(=O)Nc1ccc(OCCOCCOCCOCCNc3cccc4c3C(=O)N(C3CCC(=O)NC3=O)C4=O)cc1)c1nnc(C)n1-2 (stereo partly drawn) ): 0.0962 µM

====

system: SR leukemia; assay: NCI tumour cell line growth inhibition, 48 h
experimental_readout: TGI

As a guide, the following entries are already answered.
Form: molecule = Cc1ccc(CSC(N)=Nc2ccccc2)cc1C ; TGI = 55.8 µM

The reported TGI of the molecule CC(=O)OCC1OC(n2c(C)c(N=Nc3ccc(Cl)cc3)c(C)c(C#N)c2=S)C(OC(C)=O)C(OC(C)=O)C1OC(C)=O (stereo unspecified) was > 100 µM

According to the records, this molecule CC1(C)N=C(N)N=C(N)N1c1cccc(OCCOc2cccc([N+](=O)[O-])c2)c1 displays TGI of > 100 µM

Sample COc1ccc(-c2ccc(NNC(=O)c3ccc(F)cc3)nn2)cc1OC ; TGI observed: > 100 µM

Reported TGI for Cc1ccc(C)c(N2C(=O)C(=O)C(c3nc4ccccc4o3)/C(=N\NC(=O)c3ccccc3O)C2=O)c1 (stereo unspecified) was 76.2 µM

More entries:
Entry N/C(=N\S(=O)(=O)c1ccc(-c2ncccc2C(F)(F)F)s1)Nc1ccc(Cl)cc1 , TGI reported as 46.4 µM

According to the records, this molecule CN1CCc2c(sc3[nH]c(=S)[nH]c(=S)c23)C1 displays TGI of > 100 µM

Per the record, COC(=O)N[C@H](C(=O)NC(OCc1ccccc1)C1COC(C)(C)O1)C(C)O[Si](C)(C)C(C)(C)C (stereo partly specified) has TGI of > 100 µM

CCOC(=O)C(Cc1ccc(O)cc1)Nc1nc(=O)c2c(=O)oc(Cl)cc2o1 (stereo unspecified) has a reported TGI of 7.53 µM

Lab note: measured TGI of O=C1C=C(Nc2ccc(S(=O)(=O)Nc3nccs3)cc2)c2ccccc2C1=O was > 100 µM

For O=[N+]([O-])c1c(F)c(F)c2c(c1F)N(CCCCCl)c1ccccc1S2 the molecule record lists TGI as > 100 µM

TGI in this record for O=C(N/N=C/c1ccc(O)cc1O)c1cccnc1 : > 100 µM

// TGI value for Oc1ccc(Oc2cnc3ccccc3n2)cc1 : > 100 µM

Each recorded value in this set is attributed to PubChem BioAssay (NCI).
